study system: Fuc(a1-2)[GalNAc(a1-3)]Gal(b1-4)GlcNAc(b1-3)Gal(b1-4)GlcNAc(b1-3)Gal(b1-4)GlcNAc
assay protocol: glycan array binding signal (z-score within array); higher = stronger binding
measurement context: glycan notation: IUPAC condensed, linker removed
Shown is part of a subset that was picked to be rich in the strongest signals.
property label: glycan array binding signal (z-score)

{"binder": "HPAIIITrx (Helix pomatia), Q1KM18 (protein) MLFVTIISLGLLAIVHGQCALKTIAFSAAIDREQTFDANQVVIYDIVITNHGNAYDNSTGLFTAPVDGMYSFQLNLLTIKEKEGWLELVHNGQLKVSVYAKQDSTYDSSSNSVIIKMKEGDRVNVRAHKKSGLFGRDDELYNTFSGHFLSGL", "quantitative result": 2.94}
{"binder": "Clrb (Mus musculus) (protein) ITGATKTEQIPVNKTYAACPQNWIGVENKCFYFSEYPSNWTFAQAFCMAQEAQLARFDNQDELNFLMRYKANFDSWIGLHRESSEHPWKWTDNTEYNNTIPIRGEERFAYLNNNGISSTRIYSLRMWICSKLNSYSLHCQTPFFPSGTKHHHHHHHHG", "quantitative result": -0.215}
